binders and their reported apparent Kd (screen)
# targetOrSystem: T1, TNFR1 (Homo sapiens, UniProt P19438)
# T1 chain: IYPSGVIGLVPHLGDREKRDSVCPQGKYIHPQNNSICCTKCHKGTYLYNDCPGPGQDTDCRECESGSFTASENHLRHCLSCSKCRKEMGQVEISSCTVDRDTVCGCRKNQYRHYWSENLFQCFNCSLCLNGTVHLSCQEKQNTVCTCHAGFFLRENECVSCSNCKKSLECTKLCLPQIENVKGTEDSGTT
# experimentSummary: yeast display SC50
Could you give me the number in nM? Just the number is fine.

Here's what some known entries look like.
E95I (designed binder) MTLQELLREEALRRAEAEAFRYALELLAEKFPEQKEYLLDLAEEIESQIRSLSGVDVEDVRKFLDKEWAWVKELLAEHPAELAEVEAARAARLAILRAEVEAKVAA :: 0.446
S51Y (designed binder) MTLQELLREEALRRAEAEAFRYALELLAEKFPEQKEYLLDLAEEIESQIRYLSGVDVEDVRKFLDKEWAWVKELLAEHPAELAEVEAARAARLAELRAEVEAKVAA :: 0.252
E73Q (designed binder) MTLQELLREEALRRAEAEAFRYALELLAEKFPEQKEYLLDLAEEIESQIRSLSGVDVEDVRKFLDKEWAWVKQLLAEHPAELAEVEAARAARLAELRAEVEAKVAA :: 0.446

# input State the recorded apparent Kd (screen) for this entry: E36P (designed binder) MTLQELLREEALRRAEAEAFRYALELLAEKFPEQKPYLLDLAEEIESQIRSLSGVDVEDVRKFLDKEWAWVKELLAEHPAELAEVEAARAARLAELRAEVEAKVAA
# output 0.49
